target: UniProt:E9AFX2; assay: biochemical; assay type: biochemical; details: read-out: 20mM inhibition LmjIPCS
Where a SMILES comes first, the peptide text is derived from it.
MEASURED PARAMETER: inhibition at 20000 µM (%)
Report only the number, with the unit % understood.

QUERY: Fill in inhibition at 20000 µM for record N[C@@H](Cc1ccccc1)C(=O)N[C@@H](Cc1ccc(O)cc1)C(=O)O [PHENYLALANYLTYROSINE] (H-Phe-Tyr-OH)
RESULT: 7.42

QUERY: Fill in inhibition at 20000 µM for record Cn1cnc2c1c(=O)[nH]c(=O)n2C [THEOBROMINE]
RESULT: 24

QUERY: Fill in inhibition at 20000 µM for record C[N+](C)(C)CCOP(=O)(O)OP(=O)([O-])OC[C@H]1O[C@@H](n2ccc(N)nc2=O)[C@H](O)[C@@H]1O [CITICOLINE]
RESULT: 0.108

QUERY: Fill in inhibition at 20000 µM for record CN[C@@H]1[C@H](O[C@H]2[C@H](O[C@H]3[C@H](O)[C@@H](O)[C@H](NC(=N)N)[C@@H](O)[C@@H]3NC(=N)N)O[C@@H](C)[C@]2(O)CO)O[C@@H](CO)[C@H](O)[C@H]1O [DIHYDROSTREPTOMYCIN]
RESULT: 12

QUERY: Fill in inhibition at 20000 µM for record C[C@H](N)[C@H](O)c1ccc(O)c(O)c1 [LEVONORDEFRIN]
RESULT: 16

QUERY: Fill in inhibition at 20000 µM for record C[C@@H]1O[C@@H](O[C@H]2CC[C@]3(C=O)[C@H]4CC[C@]5(C)[C@@H](C6=CC(=O)OC6)CC[C@]5(O)[C@@H]4CC[C@]3(O)C2)[C@H](O)[C@H](O)[C@H]1O [CONVALLATOXIN]
RESULT: 16

###

Biological target: LmjIPCS (inositol phosphorylceramide synthase from L. major) (Leishmania major)
Sequence (E9AFX2 1-338): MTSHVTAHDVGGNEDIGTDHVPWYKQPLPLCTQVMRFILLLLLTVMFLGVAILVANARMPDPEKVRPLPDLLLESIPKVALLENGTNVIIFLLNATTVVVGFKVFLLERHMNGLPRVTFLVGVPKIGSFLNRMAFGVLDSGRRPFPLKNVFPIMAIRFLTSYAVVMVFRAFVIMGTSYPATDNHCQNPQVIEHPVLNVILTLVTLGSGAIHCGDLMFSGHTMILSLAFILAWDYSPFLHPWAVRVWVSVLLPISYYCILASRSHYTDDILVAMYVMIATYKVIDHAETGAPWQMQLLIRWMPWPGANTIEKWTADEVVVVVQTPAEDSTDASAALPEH
Assay: biochemical
Type: biochemical
Settings: single concentration 20mM as printed; screening of NINDS set, sheet Screen 1
Where a SMILES comes first, the peptide text is derived from it. The star is where a group is joined. For = O=C*
MEASURED PARAMETER: 20mM inhibition LmjIPCS (%)
Report only the number, with the unit % understood.

{"COMPOUND": "NC(Cc1ccc(Cl)cc1)C(=O)O (centres unmarked)", "MEASURED PARAMETER": "20mM inhibition LmjIPCS", "ASSAY VALUE": 4}
{"COMPOUND": "CC(=O)Oc1ccc2c(c1)CC[C@@H]1[C@@H]2CC[C@]2(C)[C@@H](OC(C)=O)CC[C@@H]12 [ESTRADIOL DIACETATE]", "MEASURED PARAMETER": "20mM inhibition LmjIPCS", "ASSAY VALUE": 1.59}
{"COMPOUND": "CSCC[C@H](NC=O)C(=O)N[C@@H](Cc1ccccc1)C(=O)O [N-FORMYLMETHIONYLPHENYLALANINE] (For-Met-Phe-OH)", "MEASURED PARAMETER": "20mM inhibition LmjIPCS", "ASSAY VALUE": 5.35}
{"COMPOUND": "NC1(C(=O)O)CC1", "MEASURED PARAMETER": "20mM inhibition LmjIPCS", "ASSAY VALUE": 9}

Pending compound:
QUERY: Provide measured 20mM inhibition LmjIPCS on LmjIPCS (inositol phosphorylceramide synthase from L. major) (Leishmania major) for CC(=O)[C@@]1(O)CC[C@H]2[C@@H]3C=C(Cl)C4=CC(=O)[C@@H]5C[C@@H]5[C@]4(C)[C@H]3CC[C@@]21C please.
RESULT: 10

###

biological target: LmjIPCS (inositol phosphorylceramide synthase from L. major) (Leishmania major, UniProt E9AFX2); assay: biochemical; type: biochemical; design: dose or concentration left out as unconfirmed; details: read-out: inhibition LmjIPCS
// values below are reported inhibition
Report only the number, with the unit % understood.

Previously resolved entries follow.
{"COMPOUND": "Nc1cc(N2CCCCC2)nc(N)[n+]1[O-]", "MEASURED PARAMETER": "inhibition", "ASSAY VALUE": 15}
{"COMPOUND": "Cc1noc(NS(=O)(=O)c2ccc(N)cc2)c1C", "MEASURED PARAMETER": "inhibition", "ASSAY VALUE": 20}

QUERY: Fill in inhibition for record C[C@]12CCC(=O)C=C1CC[C@@H]1[C@@H]2[C@@H](O)C[C@@]2(C)[C@H]1CC[C@]2(O)C(=O)CO [HYDROCORTISONE]
RESULT: 13

QUERY: Fill in inhibition for record CCN(CC)CCNC(=O)c1cc(Br)c(N)cc1OC [BROMOPRIDE]
RESULT: 17

QUERY: Fill in inhibition for record COc1ccc(C(=O)c2ccccc2O)c(O)c1
RESULT: 11

QUERY: Fill in inhibition for record CCc1ccc(CCOc2ccc(CC3SC(=O)NC3=O)cc2)nc1 (stereo not drawn)
RESULT: 9

###

target: LmjIPCS (inositol phosphorylceramide synthase from L. major) (Leishmania major, UniProt E9AFX2); assay: biochemical; assay type: biochemical; settings: read-out: 20mM inhibition LmjIPCS
// values below are reported inhibition at 20000 µM
Report only the number, with the unit % understood.

{"COMPOUND": "Nc1ccc(S(N)(=O)=O)cc1 [SULFANILAMIDE]", "inhibition at 20000 µM, %": -1.19}
{"COMPOUND": "Cc1cc(CC(=O)O)n(C)c1C(=O)c1ccc(Cl)cc1 [ZOMEPIRAC]", "inhibition at 20000 µM, %": 10}
{"COMPOUND": "NS(=O)(=O)c1cc2c(cc1C(F)(F)F)NCNS2(=O)=O [HYDROFLUMETHIAZIDE]", "inhibition at 20000 µM, %": 9}
{"COMPOUND": "C[C@@H]1C[C@@H]([C@H](O)CC2CC(=O)NC(=O)C2)C(=O)[C@@H](C)C1 [cycloheximide, reference compound]", "inhibition at 20000 µM, %": 9}
{"COMPOUND": "CC[C@@]1(O)C[C@H](O)c2c(cc3c(c2O)C(=O)c2c(O)ccc(O)c2C3=O)[C@H]1C(=O)OC [RUTILANTINONE]", "inhibition at 20000 µM, %": 27}

QUERY: Fill in inhibition at 20000 µM for record C[C@H]1CC[C@]2(NC1)O[C@H]1C[C@H]3[C@@H]4CC[C@H]5C[C@@H](O[C@@H]6O[C@H](CO)[C@H](O[C@@H]7O[C@H](CO)[C@@H](O)[C@H](O[C@@H]8OC[C@@H](O)[C@H](O)[C@H]8O)[C@H]7O[C@@H]7O[C@H](CO)[C@@H](O)[C@H](O)[C@H]7O)[C@H](O)[C@H]6O)CC[C@]5(C)[C@H]4CC[C@]3(C)[C@H]1[C@@H]2C
RESULT: 12

###

biological target: LmjIPCS (inositol phosphorylceramide synthase from L. major) (Leishmania major, UniProt E9AFX2); experiment: biochemical; type: biochemical; conditions: read-out: 20mM inhibition LmjIPCS
// values below are reported inhibition at 20000 µM
Report only the number, with the unit % understood.

Previously resolved entries follow.
{"COMPOUND": "Cc1ccc(C(=O)c2ccc(CC(=O)O)n2C)cc1", "inhibition at 20000 µM, %": 4}
{"COMPOUND": "NS(=O)(=O)c1cc(C(=O)O)c(NCc2ccco2)cc1Cl [FUROSEMIDE]", "inhibition at 20000 µM, %": 5}
{"COMPOUND": "CCOC(=O)[C@H](CCc1ccccc1)N[C@H]1CCc2ccccc2N(CC(=O)O)C1=O", "inhibition at 20000 µM, %": -0.0339}
{"COMPOUND": "CCN(CC)CC(=O)Nc1c(C)cccc1C", "inhibition at 20000 µM, %": 2.47}
{"COMPOUND": "OCc1ccccc1O[C@@H]1O[C@H](CO)[C@@H](O)[C@H](O)[C@H]1O", "inhibition at 20000 µM, %": 14}

QUERY: Fill in inhibition at 20000 µM for record C=C1c2cccc(O)c2C(=O)C2=C(O)[C@]3(O)C(=O)C(C(N)=O)=C(O)[C@@H](N(C)C)[C@@H]3[C@@H](O)[C@H]12
RESULT: 33

QUERY: Fill in inhibition at 20000 µM for record Oc1ccc(Cl)cc1
RESULT: 12
